target or test system: Adenosine receptor A3 (Homo sapiens)
Sequence (P0DMS8 whole entry): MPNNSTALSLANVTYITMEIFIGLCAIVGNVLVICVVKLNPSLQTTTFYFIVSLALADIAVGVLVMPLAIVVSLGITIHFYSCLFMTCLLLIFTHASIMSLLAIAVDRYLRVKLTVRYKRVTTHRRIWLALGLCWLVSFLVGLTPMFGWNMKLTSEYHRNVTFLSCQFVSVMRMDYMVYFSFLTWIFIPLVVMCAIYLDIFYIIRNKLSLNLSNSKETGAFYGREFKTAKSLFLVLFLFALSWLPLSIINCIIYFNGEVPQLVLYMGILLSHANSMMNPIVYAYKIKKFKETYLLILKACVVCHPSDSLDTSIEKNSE
Simple rule here: Ki less than 60 nM is y, otherwise n.

Here are 3 compounds together with their reported answers.
>>> print(df.to_string())
                                smiles_text  cat
0  Nc1nc2nn(CC3CCCCC3)cc2c2nc(-c3ccco3)nn12    n
1  CCCCCNC(=O)Nc1nc2nn(CC3CCCCC3)cc2c2nc(-c3ccco3)nn12    y
2  CC(C)(C)NC(=O)Nc1nc2nn(CCCc3ccccc3)cc2c2nc(-c3ccco3)nn12    n

Prompt: # strict comparison: is reported Ki < 60 nM? input = CC(C)CCn1cc2c(nc(NC(=O)NC3CCCCC3)n3nc(-c4ccco4)nc23)n1
Completion: y

Prompt: # strict comparison: is reported Ki < 60 nM? input = CCCCCCCCn1cc2c(nc(N)n3nc(-c4ccco4)nc23)n1
Completion: n

Prompt: # strict comparison: is reported Ki < 60 nM? input = O=C(Nc1nc2nn(CC3CCCCC3)cc2c2nc(-c3ccco3)nn12)NC1CCCCC1
Completion: y

Prompt: # strict comparison: is reported Ki < 60 nM? input = CCCCCCCCn1cc2c(nc(NC(=O)Nc3ccc(CC(=O)OCC)cc3)n3nc(-c4ccco4)nc23)n1
Completion: y
